Ref: PubChem BioAssay (NCATS)

test: qHTS of pediatric cancer cell lines to identify multiple opportunities for drug repurposing: Primary screen for NB-EBc1 cells (AID 1347095); conditions: NB-EBc1 neuroblastoma viability, CellTiter-Glo luminescence, 48 h; series mostly up to 46 µM
Records with an inconclusive call do not appear. Calls of active or inactive are those of the source. The call rests on the fitted dose curve; in most records, active means well fitted cell-killing curve with a large enough effect; inconclusive means small, poorly fitted or top-dose-only effect; inactive means no such curve, though single readings can be large or run the other way.
Parameter call: string, one of active, inactive

These solved cases illustrate the format of a correct answer.
> print(dat)
                                   compound     label
1  COc1c(O)cc2c(c1O)[C@@H]1O[C@H](CO)[C@@H](O)[C@H](O)[C@H]1OC2=O  inactive
2  C[C@H](Cc1ccc(O)c(O)c1)[C@@H](C)Cc1ccc(O)c(O)c1    active
3                   CC(C)(S)[C@@H](N)C(=O)O  inactive
4  CCCS(=O)c1ccc2nc(NC(=O)OC)[nH]c2c1 (stereo unspecified)    active
5  COc1cc(Nc2c(C#N)cnc3cc(OCCCN4CCN(C)CC4)c(OC)cc23)c(Cl)cc1Cl  inactive

input: Please indicate how the test categorized "CCCCCCCCOc1ccccc1C(=O)Nc1ccc(C(=O)OCC[N+](C)(CC)CC)cc1" .
output: inactive

input: Please indicate how the test categorized "COc1ccc2cc([C@H](C)C(=O)O)ccc2c1" .
output: inactive

input: Please indicate how the test categorized "CC1(C)C(=O)N(CCN2CCC(C(=O)c3ccc(F)cc3)CC2)c2ccccc21" .
output: inactive

input: Please indicate how the test categorized "O=C(O)c1cccc(-c2noc(-c3ccccc3F)n2)c1" .
output: inactive

input: Please indicate how the test categorized "CCOC(=O)C1=C(O)C(=O)N(Cc2ccccc2)C1" .
output: inactive

input: Please indicate how the test categorized "O=c1c(O)c(-c2ccc(O)cc2O)oc2cc(O)cc(O)c12" .
output: inactive
